Measurement record for DNA topoisomerase 1 (Homo sapiens); quantity recorded: IC50.
measurement.type: IC50 (µM)

- compound.string: "C[C@@H]1O[C@@H](Oc2cc(O)c3c(=O)c(O[C@@H]4OC[C@H](O)[C@H](O)[C@H]4O)c(-c4ccc(O)cc4)oc3c2)[C@H](O)[C@H](O)[C@H]1O"
  tested.target: "DNA topoisomerase 1 (Homo sapiens)"
  value.unit: "µM"
  IC50: 250

P = C[C@@H]1O[C@@H](Oc2cc(O)c3c(=O)c(O[C@@H]4O[C@H](CO)[C@H](O)[C@H](O)[C@H]4O[C@@H]4O[C@@H](C)[C@H](O)[C@@H](O)[C@H]4O)c(-c4ccc(O)cc4)oc3c2)[C@H](O)[C@H](O)[C@H]1O
Q = C[C@@H]1O[C@@H](Oc2cc(O)c3c(=O)c(O[C@@H]4O[C@H](CO)[C@@H](O)[C@H](O)[C@H]4O)c(-c4ccc(O)cc4)oc3c2)[C@H](O)[C@H](O)[C@H]1O
INPUT: Smaller IC50 value? Options are P and Q Lab note: record the label of whichever item you select.
OUTPUT: Q
(Q: 110 µM, P: 260 µM)
